Entries and their measured IC50 follow.
Biological target: recombinant human kinase domain of JAK2 (Homo sapiens (Human))
Sequence (O60674 849-1124): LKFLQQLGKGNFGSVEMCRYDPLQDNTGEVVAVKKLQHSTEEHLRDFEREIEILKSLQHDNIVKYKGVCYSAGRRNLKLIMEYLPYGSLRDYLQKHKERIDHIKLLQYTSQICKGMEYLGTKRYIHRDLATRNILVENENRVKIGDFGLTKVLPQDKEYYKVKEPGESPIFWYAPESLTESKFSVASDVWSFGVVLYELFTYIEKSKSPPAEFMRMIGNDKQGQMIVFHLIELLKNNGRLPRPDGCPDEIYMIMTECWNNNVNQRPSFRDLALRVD
Assay: JAK Caliper enzyme assay at 1 mM ATP (JAK2);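 note: microfluidic mobility-shift read-out of fluorescent synthetic peptide phosphorylation, percent product converted from peak heights, room temperature, DMSO-only wells as uninhibited baseline, inhibition curve fit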
Format: biochemical

• Cn1cc(Nc2nccc(N3C[C@H]4CC[C@@H](C3)N4Cc3ccno3)n2)cn1 = 394 nM
• Cn1cc(Nc2nccc(N3C[C@H]4CC[C@@H](C3)N4C(N)=O)n2)cn1 = 1480 nM
• CCNC(=O)c1ccc(Nc2nccc(N3CC4CC(C3)N4C(=O)C3CC3)n2)cc1C = 7860 nM

Now, please, on to the next molecule.
Summary: CNC(=O)c1ncc(Nc2nccc(N3C[C@H]4CC[C@@H](C3)N4C(=O)[C@@H]3C[C@H]3C#N)n2)cc1C , recombinant human kinase domain of JAK2 (Homo sapiens (Human)), IC50 = 140 nM
